# test target: T1, rhesus serum albumin (rhesus, UniProt Q28522 17-600)
# T1 construct: also called RhSA; Rh-SA
# T1 sequence (Q28522 17-600 limits assumed): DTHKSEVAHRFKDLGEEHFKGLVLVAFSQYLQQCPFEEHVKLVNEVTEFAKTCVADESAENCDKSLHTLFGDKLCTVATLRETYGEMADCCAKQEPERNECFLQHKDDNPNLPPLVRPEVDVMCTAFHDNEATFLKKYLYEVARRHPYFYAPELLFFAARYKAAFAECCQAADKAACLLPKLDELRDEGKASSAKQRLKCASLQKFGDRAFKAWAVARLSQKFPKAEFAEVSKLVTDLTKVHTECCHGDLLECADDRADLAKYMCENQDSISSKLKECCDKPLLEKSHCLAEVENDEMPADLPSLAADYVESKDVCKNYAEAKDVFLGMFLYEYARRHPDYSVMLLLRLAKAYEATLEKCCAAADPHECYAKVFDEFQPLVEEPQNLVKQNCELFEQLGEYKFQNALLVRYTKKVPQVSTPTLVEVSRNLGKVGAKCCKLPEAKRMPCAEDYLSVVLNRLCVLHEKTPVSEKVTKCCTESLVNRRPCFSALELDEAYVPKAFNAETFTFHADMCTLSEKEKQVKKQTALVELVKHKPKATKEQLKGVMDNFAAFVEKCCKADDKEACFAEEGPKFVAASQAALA
# protocol description: direct binding ELISA, albumin coated
pEC50: −log10 of the molar value.

binder	pEC50
PCSK9-PKE2 tandem 4472_E05 (designed binder, not shown: small tags and cut ends, The two parts are one polypeptide in the real molecule, joined by the undisclosed linker R; they are given here as separate chains.) PCSK9 10Fn3: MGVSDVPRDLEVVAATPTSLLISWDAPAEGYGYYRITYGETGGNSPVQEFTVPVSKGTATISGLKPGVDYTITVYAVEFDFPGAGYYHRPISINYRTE PKE2 10Fn3: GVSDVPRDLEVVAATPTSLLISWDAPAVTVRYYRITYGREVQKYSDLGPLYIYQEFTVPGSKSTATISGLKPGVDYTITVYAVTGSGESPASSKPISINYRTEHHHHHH	7.20
PCSK9-PKE2 tandem 4472_B03 (designed binder, not shown: The inter-domain linker; In the real molecule the two parts below are one polypeptide joined by this linker) PCSK9 domain: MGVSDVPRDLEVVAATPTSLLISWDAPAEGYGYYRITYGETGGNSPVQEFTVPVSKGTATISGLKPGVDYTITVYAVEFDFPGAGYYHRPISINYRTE PKE2 domain: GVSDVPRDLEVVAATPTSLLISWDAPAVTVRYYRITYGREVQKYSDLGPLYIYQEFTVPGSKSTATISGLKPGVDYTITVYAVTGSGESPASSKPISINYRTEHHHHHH	7.01
PCSK9-PKE2 tandem 4472_A06 (designed binder, not shown: small tags and cut ends, The two parts are one polypeptide in the real molecule, joined by the undisclosed linker M; they are given here as separate chains.) PCSK9 10Fn3: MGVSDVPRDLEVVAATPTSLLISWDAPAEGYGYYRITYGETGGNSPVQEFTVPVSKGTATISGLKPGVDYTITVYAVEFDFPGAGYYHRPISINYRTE PKE2 10Fn3: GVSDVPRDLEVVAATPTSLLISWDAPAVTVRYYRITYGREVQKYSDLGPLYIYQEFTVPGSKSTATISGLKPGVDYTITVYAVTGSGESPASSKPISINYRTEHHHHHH	7.35
PCSK9-PKE2 tandem 4472_F06 (designed binder, The real molecule is ONE polypeptide: PCSK9 domain, undisclosed linker 'G' (a code letter, not the residue), PKE2 domain. It is given here as two chains because the linker letters are unknown., not shown: The inter-domain linker) PCSK9 domain: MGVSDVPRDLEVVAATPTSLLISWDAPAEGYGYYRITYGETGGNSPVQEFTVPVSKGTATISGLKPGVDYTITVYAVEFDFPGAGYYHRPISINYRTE PKE2 domain: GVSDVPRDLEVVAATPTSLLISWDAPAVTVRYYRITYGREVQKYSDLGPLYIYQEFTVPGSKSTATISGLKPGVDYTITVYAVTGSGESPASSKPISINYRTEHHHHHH	7.39
PCSK9-PKE2 tandem 4472_H09 (designed binder, The real molecule is ONE polypeptide: PCSK9 domain, undisclosed linker C, PKE2 domain. It is given here as two chains because the linker letters are unknown., not shown: The inter-domain linker) PCSK9 domain: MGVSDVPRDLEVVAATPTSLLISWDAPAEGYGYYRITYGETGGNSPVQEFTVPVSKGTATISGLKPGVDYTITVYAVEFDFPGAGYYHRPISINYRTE PKE2 domain: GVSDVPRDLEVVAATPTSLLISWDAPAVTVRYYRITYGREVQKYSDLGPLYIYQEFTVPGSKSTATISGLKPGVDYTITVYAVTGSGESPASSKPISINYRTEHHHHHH	7.57
PCSK9-PKE2 tandem 4472_D06 (designed binder, not shown: The inter-domain linker; In the real molecule the two parts below are one polypeptide joined by this linker) PCSK9 domain: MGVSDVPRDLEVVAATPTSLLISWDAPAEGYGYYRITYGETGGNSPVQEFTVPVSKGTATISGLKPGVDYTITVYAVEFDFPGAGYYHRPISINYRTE PKE2 domain: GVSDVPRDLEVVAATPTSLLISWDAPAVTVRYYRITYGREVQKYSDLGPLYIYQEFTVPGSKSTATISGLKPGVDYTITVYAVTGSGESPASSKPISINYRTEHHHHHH	7.03
